B1: CLPTM1 (parent)
chain: MNLHVYISEHEHFTDFNATSALFW

# Variants of: B1
# assay-summary: protein stability index of a GFP-peptide fusion (GPS, HEK-293T) (PSI 1-6); higher = more stable;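 note: lentivirally expressed fusions sorted by FACS into six bins by GFP to DsRed ratio, PSI derived from sequencing read proportions per bin multiplied by bin number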
# particulars: c terminus: a fixed tail appended
property-name: protein stability index
One number for each entry.

Example results:
KNLHVYISEHEHFTDFNATSALFW [M1K]	2.95
MNLIVYISEHEHFTDFNATSALFW [H4I]	2.62
RNLHVYISEHEHFTDFNATSALFW [M1R]	2.51

Below is a list of variants. For each, state its recorded protein stability index.
1. MNLHVPISEHEHFTDFNATSALFW [Y6P]
2. MNLHVYISEHEHFTDFNATKALFW [S20K]
3. MNLHVYISEGEHFTDFNATSALFW [H10G]
4. MNLHVAISEHEHFTDFNATSALFW [Y6A]
5. MNLHVYISEHEHFTDFNATSALFD [W24D]
6. MNLHVYISEHEHFSDFNATSALFW [T14S]

A:
1: 1.49; 2: 3.57; 3: 2.58; 4: 2.15; 5: 3.34; 6: 3.26

Below is a list of variants. For each, state its recorded protein stability index.
1. MNLHVYWSEHEHFTDFNATSALFW [I7W]
2. MNEHVYISEHEHFTDFNATSALFW [L3E]
3. MNLHVYISEHEHFTWFNATSALFW [D15W]
4. TNLHVYISEHEHFTDFNATSALFW [M1T]
5. MNLHVYISEHEHFTDFNATSALFP [W24P]
6. MNLHIYISEHEHFTDFNATSALFW [V5I]
7. MNPHVYISEHEHFTDFNATSALFW [L3P]

A:
2.65
2.62
3.89
2.97
2.76
3.89
1.52

Below is a list of variants. For each, state its recorded protein stability index.
1. MNLHVYISEHEHPTDFNATSALFW [F13P]
2. MNLHVYISEHEHETDFNATSALFW [F13E]
3. MNLHVYISEHEHFTDFNETSALFW [A18E]
4. MNLHVYISEHEHFTDFNARSALFW [T19R]
5. PNLHVYISEHEHFTDFNATSALFW [M1P]
6. MNLHNYISEHEHFTDFNATSALFW [V5N]

A:
2.63
3.52
1.97
2.89
1.93
1.39

Below is a list of variants. For each, state its recorded protein stability index.
1. MNLHVYNSEHEHFTDFNATSALFW [I7N]
2. MNLHVYISEHEHFTDFNATSTLFW [A21T]
3. MNLHVYISEHEPFTDFNATSALFW [H12P]
4. MNQHVYISEHEHFTDFNATSALFW [L3Q]

A:
1: 3.55; 2: 2.67; 3: 2.64; 4: 1.42
